# STUDY_SYSTEM: D(2) dopamine receptor (Rattus norvegicus)
# METHOD_NOTES: Binding activity against dopamine receptor D2 in rat brain, using [3H]spiperone as the radioligand
# Format: tissue-based
RECORDED_ENDPOINT: pIC50
Friendly reminder that pIC50 comes from taking -log10 of the concentration in mol/L.

Query block: Find pIC50 (D(2) dopamine receptor (Rattus norvegicus)) for the entry C/C=C1/c2ccccc2C=C(N2CCN(C)CC2)c2ccccc21
Result block: 5.16

Query block: Now the same for CC1c2ccccc2C=C(N2CCN(C)CC2)c2ccccc21 (configuration not stated)
Result block: 5.58

----------
# STUDY_SYSTEM: D(2) dopamine receptor (Rattus norvegicus, UniProt P61169)
# Sequence (P61169 whole entry): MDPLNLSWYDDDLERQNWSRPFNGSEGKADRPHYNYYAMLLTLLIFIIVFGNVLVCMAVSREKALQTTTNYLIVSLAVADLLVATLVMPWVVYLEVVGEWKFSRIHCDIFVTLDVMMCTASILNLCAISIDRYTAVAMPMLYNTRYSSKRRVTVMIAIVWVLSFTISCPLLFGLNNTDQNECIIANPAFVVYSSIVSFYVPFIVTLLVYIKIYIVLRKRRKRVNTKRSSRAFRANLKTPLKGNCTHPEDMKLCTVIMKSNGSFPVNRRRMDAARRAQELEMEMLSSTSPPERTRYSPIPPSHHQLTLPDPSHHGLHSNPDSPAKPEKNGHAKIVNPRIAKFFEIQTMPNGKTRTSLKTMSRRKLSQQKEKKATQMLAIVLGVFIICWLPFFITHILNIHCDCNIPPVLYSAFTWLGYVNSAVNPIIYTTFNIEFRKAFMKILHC
# METHOD_NOTES: Binding activity against dopamine D2 receptor in rat brain, using [3H]spiperone as the radioligand
pIC50: −log10 of the molar value.
RECORDED_ENDPOINT: pIC50

Query block: Find pIC50 (D(2) dopamine receptor (Rattus norvegicus, UniProt P61169)) for the entry CN1CCN(C2=Nc3ccccc3Nc3ccccc32)CC1
Result block: < 5.00

Origin of measurements: ChEMBL document CHEMBL1124346
